# subjectOfTest: UniProt G7ZKZ7
# Sequence (G7ZKZ7 whole entry): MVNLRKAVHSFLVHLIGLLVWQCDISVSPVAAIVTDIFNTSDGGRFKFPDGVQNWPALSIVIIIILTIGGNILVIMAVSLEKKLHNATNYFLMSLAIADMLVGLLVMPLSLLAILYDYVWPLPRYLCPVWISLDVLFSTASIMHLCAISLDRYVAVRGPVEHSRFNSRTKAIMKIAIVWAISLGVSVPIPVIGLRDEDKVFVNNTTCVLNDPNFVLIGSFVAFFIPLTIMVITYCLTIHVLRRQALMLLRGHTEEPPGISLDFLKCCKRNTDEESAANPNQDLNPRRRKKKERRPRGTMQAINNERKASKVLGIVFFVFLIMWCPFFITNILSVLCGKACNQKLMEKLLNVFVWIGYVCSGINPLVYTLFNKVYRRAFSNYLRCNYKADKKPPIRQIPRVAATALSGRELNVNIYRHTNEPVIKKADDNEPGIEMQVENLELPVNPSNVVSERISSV
pKi: −log10 of the molar value.

compound | pKi
c1cc2c(c(N3CCNCC3)c1)OCCO2 | 7.09

###

# subjectOfTest: Histamine H1 receptor (Rattus norvegicus)
# Sequence (P31390 whole entry): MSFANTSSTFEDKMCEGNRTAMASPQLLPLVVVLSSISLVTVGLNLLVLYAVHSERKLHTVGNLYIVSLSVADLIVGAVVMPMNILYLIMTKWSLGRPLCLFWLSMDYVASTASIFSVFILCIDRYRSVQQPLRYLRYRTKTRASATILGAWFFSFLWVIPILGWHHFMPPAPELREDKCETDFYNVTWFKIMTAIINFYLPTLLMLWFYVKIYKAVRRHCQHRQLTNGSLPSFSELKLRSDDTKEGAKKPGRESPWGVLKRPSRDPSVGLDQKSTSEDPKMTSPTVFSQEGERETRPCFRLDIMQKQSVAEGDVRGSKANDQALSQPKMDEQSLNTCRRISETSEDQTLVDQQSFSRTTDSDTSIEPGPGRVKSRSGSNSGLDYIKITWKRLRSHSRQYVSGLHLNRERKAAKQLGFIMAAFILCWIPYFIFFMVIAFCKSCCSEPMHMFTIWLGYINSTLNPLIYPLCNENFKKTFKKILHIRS
pKi: −log10 of the molar value.
quantityKind: pKi

compound | quantityKind | result
c1cc2c(c(N3CCNCC3)c1)OCCO2 | pKi | 5.41

###

# subjectOfTest: 5-hydroxytryptamine receptor 3A (Mus musculus)
# Sequence (P23979 whole entry): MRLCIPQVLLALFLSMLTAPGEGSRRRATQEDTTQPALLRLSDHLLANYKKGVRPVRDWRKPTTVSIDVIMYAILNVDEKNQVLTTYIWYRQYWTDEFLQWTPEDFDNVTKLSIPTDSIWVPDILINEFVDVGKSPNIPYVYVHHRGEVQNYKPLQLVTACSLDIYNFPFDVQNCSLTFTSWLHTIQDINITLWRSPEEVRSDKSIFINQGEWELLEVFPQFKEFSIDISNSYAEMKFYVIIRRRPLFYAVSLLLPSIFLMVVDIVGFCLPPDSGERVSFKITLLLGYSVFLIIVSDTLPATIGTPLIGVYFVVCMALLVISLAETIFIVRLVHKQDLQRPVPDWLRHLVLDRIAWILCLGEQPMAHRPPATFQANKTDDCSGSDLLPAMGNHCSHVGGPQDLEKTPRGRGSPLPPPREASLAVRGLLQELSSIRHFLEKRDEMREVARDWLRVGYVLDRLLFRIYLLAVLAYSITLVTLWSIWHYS
quantityKind: Ki (nM)

compound | quantityKind | result
c1cc2c(c(N3CCNCC3)c1)OCCO2 | Ki | 1300

###

# subjectOfTest: Pro-thyrotropin-releasing hormone (Rattus norvegicus, UniProt P01150)

compound | Ki
c1cc2c(c(N3CCNCC3)c1)OCCO2 | > 10 µM

###

# subjectOfTest: 5-hydroxytryptamine receptor 1B (Rattus norvegicus)
# Sequence (P28564 whole entry): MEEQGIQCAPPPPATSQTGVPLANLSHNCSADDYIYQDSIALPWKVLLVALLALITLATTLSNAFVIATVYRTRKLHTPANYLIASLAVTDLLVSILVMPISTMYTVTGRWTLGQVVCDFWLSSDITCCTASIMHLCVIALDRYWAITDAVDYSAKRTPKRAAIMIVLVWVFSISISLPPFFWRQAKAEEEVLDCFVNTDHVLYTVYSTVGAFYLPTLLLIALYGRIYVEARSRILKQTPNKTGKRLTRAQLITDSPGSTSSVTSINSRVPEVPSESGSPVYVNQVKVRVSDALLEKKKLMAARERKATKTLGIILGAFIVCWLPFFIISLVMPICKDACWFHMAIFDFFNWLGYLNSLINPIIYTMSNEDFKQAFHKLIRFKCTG

compound | Ki
c1cc2c(c(N3CCNCC3)c1)OCCO2 | 52 nM

###

# subjectOfTest: Voltage-dependent calcium channel gamma-1 subunit (Homo sapiens, UniProt Q06432)
# Sequence (Q06432 whole entry): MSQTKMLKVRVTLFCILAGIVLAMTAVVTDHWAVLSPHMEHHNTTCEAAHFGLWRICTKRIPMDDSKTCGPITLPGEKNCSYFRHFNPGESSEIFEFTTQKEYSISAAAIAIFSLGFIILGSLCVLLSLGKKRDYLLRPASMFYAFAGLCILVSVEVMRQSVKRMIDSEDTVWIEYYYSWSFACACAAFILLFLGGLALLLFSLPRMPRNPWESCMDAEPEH
pKi: −log10 of the molar value.

compound | pKi
c1cc2c(c(N3CCNCC3)c1)OCCO2 | < 5.00

###

# subjectOfTest: 5-hydroxytryptamine 1D receptor (Bos taurus, UniProt Q8MI13)
# Sequence (Q8MI13 whole entry): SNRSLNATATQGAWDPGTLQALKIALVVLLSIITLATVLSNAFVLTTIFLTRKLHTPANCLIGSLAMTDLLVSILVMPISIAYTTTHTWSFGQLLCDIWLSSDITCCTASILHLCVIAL
pKi: −log10 of the molar value.

compound | subjectOfTest | pKi
c1cc2c(c(N3CCNCC3)c1)OCCO2 | 5-hydroxytryptamine 1D receptor (Bos taurus, UniProt Q8MI13) | 6.41

###

# subjectOfTest: D(2) dopamine receptor (Rattus norvegicus, UniProt P61169)
# Sequence (P61169 whole entry): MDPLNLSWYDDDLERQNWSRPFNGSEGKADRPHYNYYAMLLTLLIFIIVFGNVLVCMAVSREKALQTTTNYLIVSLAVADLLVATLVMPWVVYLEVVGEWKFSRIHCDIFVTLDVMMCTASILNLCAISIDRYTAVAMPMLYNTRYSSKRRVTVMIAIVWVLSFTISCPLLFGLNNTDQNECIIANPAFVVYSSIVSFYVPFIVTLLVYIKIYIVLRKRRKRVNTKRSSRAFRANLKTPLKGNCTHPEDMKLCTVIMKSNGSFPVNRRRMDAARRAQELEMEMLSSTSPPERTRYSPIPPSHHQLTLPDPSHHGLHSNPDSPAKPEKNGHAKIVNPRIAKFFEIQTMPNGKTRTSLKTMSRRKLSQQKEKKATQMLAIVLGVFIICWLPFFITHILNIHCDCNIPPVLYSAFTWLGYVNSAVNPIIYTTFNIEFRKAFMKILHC

compound | readoutUnits | Ki
c1cc2c(c(N3CCNCC3)c1)OCCO2 | nM | 1100

###

# subjectOfTest: Calcium release-activated calcium channel protein 1 (Homo sapiens, UniProt Q96D31)
# Sequence (Q96D31 whole entry): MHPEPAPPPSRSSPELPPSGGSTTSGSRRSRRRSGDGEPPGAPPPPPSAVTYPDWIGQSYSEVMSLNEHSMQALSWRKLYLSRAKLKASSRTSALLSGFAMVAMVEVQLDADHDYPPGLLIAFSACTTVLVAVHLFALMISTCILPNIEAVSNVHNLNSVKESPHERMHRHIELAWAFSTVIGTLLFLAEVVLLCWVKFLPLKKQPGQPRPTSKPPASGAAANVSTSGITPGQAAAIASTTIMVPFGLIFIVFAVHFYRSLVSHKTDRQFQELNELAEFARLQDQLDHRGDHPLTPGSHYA
pKi: −log10 of the molar value.
quantityKind: pKi

compound | quantityKind | result
c1cc2c(c(N3CCNCC3)c1)OCCO2 | pKi | < 5.00

###

# subjectOfTest: Cysteinyl leukotriene receptor 1 (Cavia porcellus, UniProt Q2NNR5)
# Sequence (Q2NNR5 whole entry): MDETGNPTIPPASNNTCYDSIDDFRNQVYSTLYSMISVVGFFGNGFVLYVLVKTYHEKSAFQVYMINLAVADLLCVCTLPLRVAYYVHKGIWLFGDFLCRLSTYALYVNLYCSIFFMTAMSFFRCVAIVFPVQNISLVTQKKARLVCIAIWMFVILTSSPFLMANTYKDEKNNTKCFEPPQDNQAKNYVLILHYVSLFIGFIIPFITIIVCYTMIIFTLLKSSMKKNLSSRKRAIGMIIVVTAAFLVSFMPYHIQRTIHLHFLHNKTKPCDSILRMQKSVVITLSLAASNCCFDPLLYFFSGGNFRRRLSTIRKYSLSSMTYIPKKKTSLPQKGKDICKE
pKi: −log10 of the molar value.
quantityKind: pKi

compound | quantityKind | result
c1cc2c(c(N3CCNCC3)c1)OCCO2 | pKi | < 5.00

###

# subjectOfTest: D(1A) dopamine receptor (Rattus norvegicus, UniProt P18901)
# Sequence (P18901 whole entry): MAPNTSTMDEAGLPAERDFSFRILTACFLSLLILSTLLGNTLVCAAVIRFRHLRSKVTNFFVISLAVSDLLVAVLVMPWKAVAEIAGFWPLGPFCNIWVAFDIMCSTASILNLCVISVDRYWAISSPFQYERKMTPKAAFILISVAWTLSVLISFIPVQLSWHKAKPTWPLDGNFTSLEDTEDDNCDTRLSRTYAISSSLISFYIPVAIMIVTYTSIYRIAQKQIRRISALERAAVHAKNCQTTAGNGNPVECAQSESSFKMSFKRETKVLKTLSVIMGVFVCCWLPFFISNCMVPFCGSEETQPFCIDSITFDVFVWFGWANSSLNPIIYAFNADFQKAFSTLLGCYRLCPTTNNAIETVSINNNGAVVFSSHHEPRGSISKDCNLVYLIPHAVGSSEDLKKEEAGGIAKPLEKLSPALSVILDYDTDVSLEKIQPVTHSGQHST

compound | Ki
c1cc2c(c(N3CCNCC3)c1)OCCO2 | > 10 µM
